# measured_target: CCR2 (Homo sapiens, UniProt P41597)
# Sequence (P41597 1-360 isoform P41597-2): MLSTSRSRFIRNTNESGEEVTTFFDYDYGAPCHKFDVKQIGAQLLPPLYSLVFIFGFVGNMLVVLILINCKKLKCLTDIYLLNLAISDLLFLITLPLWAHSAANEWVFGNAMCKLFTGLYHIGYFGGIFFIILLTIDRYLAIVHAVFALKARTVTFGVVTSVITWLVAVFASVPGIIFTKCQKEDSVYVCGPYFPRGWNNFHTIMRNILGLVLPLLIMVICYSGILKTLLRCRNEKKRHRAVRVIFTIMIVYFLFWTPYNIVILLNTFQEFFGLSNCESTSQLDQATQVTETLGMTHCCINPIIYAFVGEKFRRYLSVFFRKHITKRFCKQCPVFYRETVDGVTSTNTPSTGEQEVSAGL
# assay_overview: MCP-1 Receptor Binding Assay in THP-1 Cells
# details: 0.5 nM 125I labeled MCP-1, 2 hours at 30° C., read-out: Inhibition of MCP-1 Binding IC50 CCR2 Binding
pIC50: −log10 of the molar value.

# compound, pIC50
measured = [
    ("CS(=O)(=O)Nc1cccc(C2(O)CCC(N3CC(NC(=O)CNC(=O)c4cccc(C(F)(F)F)c4)C3)CC2)c1 (stereo not shown) [Example 61]", 6.89),
    ("CCOC(=O)Cc1ccc(C2CCC(N3CC(NC(=O)CNC(=O)c4cccc(C(F)(F)F)c4)C3)CC2)cc1 (single isomer, unassigned) [Example 24a]", 6.47),
    ("CS(=O)(=O)c1ccc(C2CCC(N3CC(NC(=O)CNC(=O)c4cccc(C(F)(F)F)c4)C3)CC2)cc1 (stereo not shown) [Example 29]", 6.55),
    ("O=C(CNC(=O)c1cc(Br)cc(C(F)(F)F)c1)NC1CN(C2CCC(c3ccccc3)CC2)C1 (stereo not shown) [Example 77]", 6.42),
]

* * *

# measured_target: CCR2 (Homo sapiens)
# Construct: host or cells: THP-1 human monocytic cells
# assay_overview: MCP-1 Receptor Binding Assay in THP-1 Cells
# details: 0.5 nM 125I labeled MCP-1, 2 hours at 30° C., read-out: Inhibition of MCP-1 Binding IC50 CCR2 Binding

# compound, reported_relation, IC50, nM
records = [
    ("CN(C)c1ccc(C(F)(F)F)cc1C(=O)NCC(=O)NC1CN(C2CCC(c3ccccc3)CC2)C1 (centres unmarked)", "=", 240),
    ("O=C(CNC(=O)c1cccc(C(F)(F)F)c1)NC1CN(C2CCC(O)(c3cccc(O)c3)CC2)C1 (single isomer, unassigned) [Example 46a]", "=", 110),
    ("CC(C)(C)NC(=O)Nc1ccc(C2CCC(N3CC(NC(=O)CNC(=O)c4cccc(C(F)(F)F)c4)C3)CC2)cc1 (centres unmarked)", ">", 25000),
    ("O=C(O)COc1ccc(C2CCC(N3CC(NC(=O)CNC(=O)c4cccc(C(F)(F)F)c4)C3)CC2)cc1 (centres unmarked)", "=", 124),
    ("Nc1ccc(C2CCC(N3CC(NC(=O)CNC(=O)c4cccc(C(F)(F)F)c4)C3)CC2)cc1 (centres unmarked)", "=", 337),
    ("CC(C)(C)OC(=O)Nc1ccc(C2(O)CCC(N3CC(NC(=O)CNC(=O)c4cccc(C(F)(F)F)c4)C3)CC2)cc1 (centres unmarked)", "=", 230),
    ("O=C(CNC(=O)c1cc(C(F)(F)F)cc(C(F)(F)F)c1)NC1CN(C2CCC(c3ccccc3)CC2)C1 (single isomer, unassigned) [Example 75a]", "=", 4700),
    ("CS(=O)(=O)Nc1ccc(C2CCC(N3CC(NC(=O)CNC(=O)c4cccc(C(F)(F)F)c4)C3)CC2)cc1 (centres unmarked)", "=", 100),
    ("O=C(CNC(=O)c1cccc(C(F)(F)F)c1)NC1CN(C2CCC(c3ccc4c(c3)OCC4)CC2)C1 (single isomer, unassigned)", "=", 45),
    ("O=C(CNC(=O)c1cc(C(F)(F)F)ccc1N1CCCC1)NC1CN(C2CCC(c3ccccc3)CC2)C1 (centres unmarked)", "=", 1700),
    ("O=C(CNC(=O)c1cccc(C(F)(F)F)c1)NC1CN(C2CCC(c3ccccc3)CC2)C1 (single isomer, unassigned)", "=", 33),
    ("CS(=O)(=O)c1cccc(C2CCC(N3CC(NC(=O)CNC(=O)c4cccc(C(F)(F)F)c4)C3)CC2)c1 (single isomer, unassigned) [Example 14a]", "=", 440),
    ("Nc1ccc(C(=O)NCC(=O)NC2CN(C3CCC(c4ccccc4)CC3)C2)cc1C(F)(F)F (centres unmarked)", "=", 46),
    ("O=C(CNC(=O)c1cccc(C(F)(F)F)c1)NC1CN(C2CCC(c3ccc4c(c3)OCO4)CC2)C1 (single isomer, unassigned)", "=", 1.2),
    ("O=C(CNC(=O)c1cc([N+](=O)[O-])cc(C(F)(F)F)c1)NC1CN(C2CCC(c3ccccc3)CC2)C1 (centres unmarked)", "=", 1000),
    ("NC(=O)c1ccc(C2(O)CCC(N3CC(NC(=O)CNC(=O)c4cccc(C(F)(F)F)c4)C3)CC2)cc1 (single isomer, unassigned) [Example 55a]", "=", 5300),
    ("O=C(CNC(=O)c1cc(O)cc(C(F)(F)F)c1)NC1CN(C2CCC(c3ccccc3)CC2)C1 (centres unmarked)", "=", 11000),
    ("O=C(CNC(=O)c1cccc(C(F)(F)F)c1)NC1CN(C2CCC(O)(c3ccc(F)cc3)CC2)C1 (single isomer, unassigned) [Example 47a]", "=", 206),
    ("O=C(CNC(=O)c1cccc(C(F)(F)F)c1)NC1CN(C2CCC(O)(c3cccc(-c4nnn[nH]4)c3)CC2)C1 (centres unmarked)", "=", 810),
    ("C#Cc1cccc(C2(O)CCC(N3CC(NC(=O)CNC(=O)c4cccc(C(F)(F)F)c4)C3)CC2)c1 (single isomer, unassigned) [Example 51a]", "=", 228),
    ("CCn1c(=O)oc2ccc(C3(O)CCC(N4CC(NC(=O)CNC(=O)c5cccc(C(F)(F)F)c5)C4)CC3)cc21 (single isomer, unassigned) [Example 65a]", "=", 150),
    ("COc1ccc(C(F)(F)F)cc1C(=O)NCC(=O)NC1CN(C2CCC(c3ccccc3)CC2)C1 (centres unmarked)", "=", 740),
    ("O=C(CNC(=O)c1cccc(C(F)(F)F)c1)NC1CN(C2CCC(c3ccc4oc(=O)[nH]c4c3)CC2)C1 (single isomer, unassigned)", "=", 9),
    ("O=C(CNC(=O)c1ccccc1)NC1CN(C2CCC(c3ccc4c(c3)OCO4)CC2)C1 (single isomer, unassigned)", "=", 390),
    ("O=C(CNC(=O)c1ccc(NCCO)c(C(F)(F)F)c1)NC1CN(C2CCC(c3ccccc3)CC2)C1 (centres unmarked)", "=", 400),
    ("O=C(CNC(=O)c1cccc(C(F)(F)F)c1)NC1CN(C2CCC(O)(c3ccc(Cl)cc3)CC2)C1 (centres unmarked)", "=", 240),
]

* * *

Recorded measurements of log10 IC50, one per entry
# measured_target: CCR2 (Homo sapiens, UniProt P41597)
# Sequence (P41597 1-360 isoform P41597-2): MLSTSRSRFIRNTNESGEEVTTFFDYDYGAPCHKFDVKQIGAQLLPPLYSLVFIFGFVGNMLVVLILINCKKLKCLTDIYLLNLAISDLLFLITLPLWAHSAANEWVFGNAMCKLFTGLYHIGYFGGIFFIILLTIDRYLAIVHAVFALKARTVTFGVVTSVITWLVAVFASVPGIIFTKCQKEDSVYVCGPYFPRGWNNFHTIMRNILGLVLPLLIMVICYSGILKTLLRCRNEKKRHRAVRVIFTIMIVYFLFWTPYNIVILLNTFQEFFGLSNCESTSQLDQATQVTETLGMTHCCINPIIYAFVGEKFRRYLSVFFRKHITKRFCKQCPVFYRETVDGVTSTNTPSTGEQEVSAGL
# assay_overview: MCP-1 Receptor Binding Assay in THP-1 Cells
# details: 0.5 nM 125I labeled MCP-1, 2 hours at 30° C., read-out: Inhibition of MCP-1 Binding IC50 CCR2 Binding
quantity_measured: log10 IC50 (log10 of the value in nM)

# compound, log10 IC50
data = [
    ("Nc1cc(C(=O)NCC(=O)NC2CN(C3CCC(c4ccccc4)CC3)C2)cc(C(F)(F)F)c1 (stereo not shown)", 1.36),
    ("O=C(CNC(=O)c1ccc(F)c(C(F)(F)F)c1)NC1CN(C2CCC(c3ccccc3)CC2)C1 (single isomer, unassigned) [Example 71a]", 2.30),
    ("Cn1cnc2ccc(C3(O)CCC(N4CC(NC(=O)CNC(=O)c5cccc(C(F)(F)F)c5)C4)CC3)cc21 (stereo not shown)", 2.04),
    ("CN(C)c1ccc(C2(O)CCC(N3CC(NC(=O)CNC(=O)c4cccc(C(F)(F)F)c4)C3)CC2)cc1 (single isomer, unassigned) [Example 54a]", 1.79),
    ("O=C(CNC(=O)c1cccc(C(F)(F)F)c1)NC1CN(C2CCC(O)(c3ccc4c(c3)OCCO4)CC2)C1 (single isomer, unassigned) [Example 32a]", 1.80),
    ("O=C(CNC(=O)c1cccc(C(F)(F)F)c1)NC1CN(C2CCC(c3ccc(C(=O)O)cc3)CC2)C1 (stereo not shown)", 1.85),
    ("CS(=O)(=O)N(c1cc(C(=O)NCC(=O)NC2CN(C3CCC(c4ccccc4)CC3)C2)cc(C(F)(F)F)c1)S(C)(=O)=O (stereo not shown)", 2.62),
    ("O=C(CNC(=O)c1cccc(C(F)(F)F)c1)NC1CN(C2CCC(c3ccc(Cc4nn[nH]n4)cc3)CC2)C1 (stereo not shown)", 2.41),
    ("O=C(CNC(=O)c1cccc(C(F)(F)F)c1)NC1CN(C2CCC(c3ccc(-c4nn[nH]n4)cc3)CC2)C1 (stereo not shown)", 2.30),
    ("O=C(CNC(=O)c1cccc(C(F)(F)F)c1)NC1CN(C2CCC(c3ccc4nc[nH]c4c3)CC2)C1 (single isomer, unassigned) [Example 20a]", 1.43),
    ("O=C(CNC(=O)c1cccc(C(F)(F)F)c1)NC1CN(C2CCC(O)(c3ccc4nc[nH]c4c3)CC2)C1 (single isomer, unassigned) [Example 34a]", 2.49),
    ("COc1ccc(C2CCC(N3CC(NC(=O)CNC(=O)c4cccc(C(F)(F)F)c4)C3)CC2)cc1 (single isomer, unassigned)", 1.70),
    ("Cc1cccc(C2(O)CCC(N3CC(NC(=O)CNC(=O)c4cccc(C(F)(F)F)c4)C3)CC2)c1 (stereo not shown)", 2.00),
]
